biological target: Protein Mdm4 (Homo sapiens) + E3 ubiquitin-protein ligase Mdm2 (Homo sapiens) (UniProt O15151+Q00987); test: retested Mdm2-MdmX interaction blockers, confirmation, cell-based, luminescence, single concentration, set 2 (AID 504601); conditions: SaOS-2 split-luciferase Mdm2/MdmX complementation, at 8 µM, stronger effect = higher value
Sequence (O15151 whole entry, looked up): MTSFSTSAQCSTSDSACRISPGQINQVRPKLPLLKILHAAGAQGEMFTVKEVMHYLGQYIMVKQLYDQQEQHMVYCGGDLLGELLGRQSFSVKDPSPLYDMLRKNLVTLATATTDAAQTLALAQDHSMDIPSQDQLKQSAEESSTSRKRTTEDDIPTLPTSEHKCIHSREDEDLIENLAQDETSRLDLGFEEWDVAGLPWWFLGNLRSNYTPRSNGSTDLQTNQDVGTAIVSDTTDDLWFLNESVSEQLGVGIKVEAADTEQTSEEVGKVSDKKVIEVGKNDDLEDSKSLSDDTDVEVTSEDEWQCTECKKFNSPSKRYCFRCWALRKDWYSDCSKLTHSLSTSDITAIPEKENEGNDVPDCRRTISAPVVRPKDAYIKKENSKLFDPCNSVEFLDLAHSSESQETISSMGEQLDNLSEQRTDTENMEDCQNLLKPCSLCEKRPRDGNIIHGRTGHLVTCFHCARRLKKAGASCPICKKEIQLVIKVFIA
Sequence (Q00987 whole entry, looked up): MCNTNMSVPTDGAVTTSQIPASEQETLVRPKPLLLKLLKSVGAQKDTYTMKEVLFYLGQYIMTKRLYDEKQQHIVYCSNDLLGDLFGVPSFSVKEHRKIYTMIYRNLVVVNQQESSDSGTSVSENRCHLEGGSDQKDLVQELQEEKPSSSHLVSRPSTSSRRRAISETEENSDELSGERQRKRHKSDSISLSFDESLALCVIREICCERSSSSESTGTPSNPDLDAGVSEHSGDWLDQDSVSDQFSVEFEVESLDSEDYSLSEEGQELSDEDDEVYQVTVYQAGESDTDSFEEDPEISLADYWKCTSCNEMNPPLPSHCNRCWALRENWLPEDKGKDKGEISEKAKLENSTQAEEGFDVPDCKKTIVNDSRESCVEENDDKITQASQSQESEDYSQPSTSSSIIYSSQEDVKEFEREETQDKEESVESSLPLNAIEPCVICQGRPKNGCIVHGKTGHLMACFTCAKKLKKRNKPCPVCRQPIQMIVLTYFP
The other results are listed elsewhere or left out.
Measured inhibition, listed per entry.
reported endpoint: inhibition (%)

In [3]: df
Out[3]:
                                    molecule  quantity_unit  result
 0  CC(=O)c1ccc(S(=O)(=O)N2CCN(C(=O)/C=C/c3ccc4ccccc4n3)CC2)cc1              %    85.2
 1  CC(=O)Nc1ccc(NC(=O)C(C)OC(=O)c2ccccc2C(=O)c2ccc(Cl)c([N+](=O)[O-])c2)cc1 (stereo not given)              %     102
 2  O=c1oc2ccccc2cc1-c1cn(-c2ccccc2)c(=S)[nH]1              %      92
 3  CN(C)CC(O)COc1ccc(C(C)(C)c2ccc(OCC(O)CN(C)C)cc2)cc1 (stereo not given)              %    94.2
 4  CCOC(=O)/C(=C\c1ccc([N+](=O)[O-])cc1)C(=O)c1cc(C(C)=O)c(Nc2ccccc2)s1              %     100
 5  CC1CCCCC1NC(=O)/C(C#N)=C/C=C/c1ccccc1[N+](=O)[O-] (stereo not given)              %     103
 6  COc1cccc(NC(=O)[C@H](Cc2c[nH]c3ccccc23)NC(=O)[C@@H]2Cc3ccccc3CN2)c1              %    98.2
 7  C=C(C)C(=O)O[C@H]1C/C(C)=C\C(=O)/C=C(\C)[C@H](O)[C@@H]2OC(=O)C(=C)[C@@H]21              %     103
 8  CCN(CC)S(=O)(=O)c1ccc(NC(=O)c2cccnc2Cl)c(NC(=O)c2cccnc2Cl)c1              %    75.5
 9  O=C(Nc1ccc(C(=O)N2CCOCC2)cc1)Nc1cccc(C(F)(F)F)c1              %    84.2
10  COc1ccc(C(CCN(Cc2ccc(OC)c(OC)c2)C(=O)CCl)c2ccccc2)cc1 (stereo not given)              %     103
11    NC(N)=N/N=C/c1ccc(OCc2ccc(Cl)cc2Cl)cc1              %     102
12  COc1ccc(C(=O)NC2CCCc3c2cnn3-c2cccc(C)c2C)c(OC)n1 (stereo not given)              %     102
13  O=C1[C@H]2[C@@H](c3ccc(F)cc3)N3C(=O)N(c4ccc(C(F)(F)F)cc4)C(=O)[C@@]3(Cc3ccccc3)[C@H]2C(=O)N1C1CCCCC1              %     101
14  O=C(CCCN1C(=O)/C(=C/c2ccccc2)SC1=S)Nc1ccc(O)cc1              %    80.2
15            CSc1nc(-c2ccccc2)nc(C(Cl)Cl)n1              %    97.7
16  CCOC(=O)c1c(-c2cccc(C)c2)csc1NC(=O)c1c(-c2ccccc2)noc1C              %     101
17  COc1ccccc1-n1nnnc1S(=O)(=O)Cc1ccc(Cl)cc1              %     103
18  Cc1cccc(CS(=O)(=O)c2ncc(Cl)c(C(=O)Nc3ccc(F)cc3)n2)c1              %     103
19  O=[N+]([O-])c1ccccc1S(=O)(=O)Nc1cccc2cccnc12              %     102
